Data credit: patent US20240317708A1

target: recombinant human transglutaminase 2 (Homo sapiens, UniProt P21980); assay: Transglutaminase assay (dansylcadaverine incorporation into dimethylcasein, DCC-assay); conditions: recombinant human TG2 10 nM, dansylcadaverine/dimethylcasein, 37° C.
Sequence (P21980 whole entry): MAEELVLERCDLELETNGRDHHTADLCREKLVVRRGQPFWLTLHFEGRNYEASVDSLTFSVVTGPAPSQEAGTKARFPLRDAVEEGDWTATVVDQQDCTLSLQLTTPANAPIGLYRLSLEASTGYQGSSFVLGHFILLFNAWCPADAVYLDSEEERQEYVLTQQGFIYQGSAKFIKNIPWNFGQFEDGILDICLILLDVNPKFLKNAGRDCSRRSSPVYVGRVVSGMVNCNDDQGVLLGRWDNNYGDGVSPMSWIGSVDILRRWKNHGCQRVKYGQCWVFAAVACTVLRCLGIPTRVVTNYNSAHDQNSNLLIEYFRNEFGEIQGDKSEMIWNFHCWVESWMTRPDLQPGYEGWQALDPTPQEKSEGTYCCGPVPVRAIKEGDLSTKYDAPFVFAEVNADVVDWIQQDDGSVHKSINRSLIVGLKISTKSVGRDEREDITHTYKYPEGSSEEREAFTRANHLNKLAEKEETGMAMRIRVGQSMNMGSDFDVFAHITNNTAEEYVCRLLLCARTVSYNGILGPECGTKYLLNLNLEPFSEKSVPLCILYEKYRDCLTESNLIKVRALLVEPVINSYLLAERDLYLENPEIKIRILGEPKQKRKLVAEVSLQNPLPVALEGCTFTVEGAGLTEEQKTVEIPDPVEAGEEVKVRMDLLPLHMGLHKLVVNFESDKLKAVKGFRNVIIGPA
property: IC50

Take a look at these entries with their results.
COC(=O)/C=C/CC[C@H](NC(=O)c1oc2ccccc2c1C)C(=O)Nc1cccn(CC(=O)NC2C3CC4CC2CC(O)(C4)C3)c1=O (stereo partly drawn) ... 25 to 250 nM
COC(=O)/C=C/CC[C@H](NC(=O)c1sc(C(F)(F)F)nc1C)C(=O)Nc1cccn(CC(=O)N[C@@H]2C[C@H]3CC[C@@H]2C3)c1=O ... < 25 nM
COC(=O)/C=C/CC[C@H](NC(=O)c1cc(C(=O)OC)cc([N+](=O)[O-])c1)C(=O)Nc1cccn(CC(=O)NC2C3CC4CC(C3)CC2C4)c1=O (stereo partly drawn) ... < 25 nM

Tell me the measured IC50 of COC(=O)/C=C/CC[C@H](NC(=O)c1sc(C(F)(F)F)nc1C)C(=O)Nc1cccn(CC(=O)NC23CC4(C)CC(C)(CC(C)(C4)C2)C3)c1=O , please.
< 25 nM

Tell me the measured IC50 of COC(=O)/C=C/CC[C@H](NC(=O)c1cncn1C)C(=O)Nc1cccn(CC(=O)N[C@@H]2C[C@@H]3CC[C@H]2C3)c1=O , please.
< 25 nM

Tell me the measured IC50 of COC(=O)/C=C/CC[C@H](NC(=O)c1ccnnc1)C(=O)Nc1cccn(CC(=O)NC2C3CC4CC(C3)CC2C4)c1=O (stereo partly drawn) , please.
< 25 nM

* * *

test: Caco-2 permeability assay (CacoReady kit); assay type: in vitro ADME; conditions: human
property: Papp

Take a look at these entries with their results.
COC(=O)/C=C/CC[C@H](NC(=O)c1cc2ccccc2[nH]1)C(=O)Nc1cccn(CC(=O)NC2C3CC4CC(C3)CC2C4)c1=O (stereo partly shown) [III-8] ... < 1 ×10⁻⁶ cm/s
COC(=O)/C=C/CC[C@H](NC(=O)c1ccnnc1)C(=O)Nc1cccn(CC(=O)NC2C3CC4CC(C3)CC2C4)c1=O (stereo partly shown) [III-85] ... < 1 ×10⁻⁶ cm/s
COC(=O)/C=C/CC[C@H](NC(=O)c1ccnn1C)C(=O)Nc1cccn(CC(=O)N[C@@H]2C[C@@H]3CC[C@H]2C3)c1=O [III-117] ... < 1 ×10⁻⁶ cm/s
COC(=O)/C=C/CC[C@H](NC(=O)c1snnc1C)C(=O)Nc1cccn(CC(=O)NC23CC4(C)CC(C)(CC(C)(C4)C2)C3)c1=O [III-108] ... < 1 ×10⁻⁶ cm/s
COC(=O)/C=C/CC[C@H](NC(=O)c1snnc1C1CC1)C(=O)Nc1cccn(CC(=O)NC23CC(C2)C3)c1=O [III-172] ... < 1 ×10⁻⁶ cm/s
COC(=O)/C=C/CC[C@H](NC(=O)c1oc2ccccc2c1C)C(=O)Nc1cccn(CC(=O)NC23CC4CC(CC(Br)(C4)C2)C3)c1=O [III-53] ... 1 to 10 ×10⁻⁶ cm/s
COC(=O)/C=C/CC[C@H](NC(=O)c1nc[nH]n1)C(=O)Nc1cccn(CC(=O)NC2C3CC4CC(C3)CC2C4)c1=O (stereo partly shown) [III-104] ... < 1 ×10⁻⁶ cm/s
COC(=O)/C=C/CC[C@H](NC(=O)c1ncc(OC)o1)C(=O)Nc1cccn(CCC(=O)NC2C3CC4CC(C3)CC2C4)c1=O (stereo partly shown) [III-133] ... < 1 ×10⁻⁶ cm/s
COC(=O)/C=C/CC[C@H](NC(=O)[C@@H]1CCCNC1)C(=O)Nc1cccn(CC(=O)NC2C3CC4CC(C3)CC2C4)c1=O (stereo partly shown) [III-30] ... < 1 ×10⁻⁶ cm/s
COC(=O)/C=C/CC[C@H](NC(=O)c1oc2ccccc2c1C)C(=O)Nc1cccn(CC2C3CC4CC(C3)CC2C4)c1=O (stereo partly shown) [III-82] ... 1 to 10 ×10⁻⁶ cm/s

Tell me the measured Papp of COC(=O)/C=C/CC[C@H](NC(=O)c1csc2ccccc12)C(=O)Nc1cccn(CC(=O)NC2C3CC4CC(C3)CC2C4)c1=O (stereo partly shown) [III-107] , please.
1 to 10 ×10⁻⁶ cm/s

Tell me the measured Papp of O=C(/C=C/CC[C@H](NC(=O)c1nc(Br)cs1)C(=O)Nc1cccn(CC(=O)NC23CC(C2)C3)c1=O)NCc1ccccc1 [III-155] , please.
1 to 10 ×10⁻⁶ cm/s

Tell me the measured Papp of COC(=O)/C=C/CC[C@H](NC(=O)c1oc2ccccc2c1C)C(=O)Nc1cccn(CC(=O)N[C@@H]2C[C@@H]3C[C@H]([C@H]2C)C3(C)C)c1=O [III-69] , please.
1 to 10 ×10⁻⁶ cm/s
